test system: HL-60(TB) leukemia; assay: NCI-60 one-dose screen, 48 h (100 = growth as untreated, 0 = no growth, -100 = all killed); conditions: 10 µM unless noted
The panel holds about 83,000 compounds, 20% with a hit somewhere; the sample as a whole holds those more often.
Classes by growth: low band (below -50%), middle band (-50% to below 50%), high band (50% or more)

Qu. // return the class label for COc1ccc2c(c1)C(=O)/C(=C/c1ccc(OCC(=O)Nc3nccs3)cc1)O2
Ans. low band

Qu. // return the class label for Cc1ccc2oc(=O)cc(C3c4ccc([nH]4)C(c4cc(=O)oc5ccc(C)cc45)c4ccc([nH]4)C(c4cc(=O)oc5ccc(C)cc45)c4ccc([nH]4)C(c4cc(=O)oc5ccc(C)cc45)c4ccc3[nH]4)c2c1 (centres undefined)
Ans. middle band

Qu. // return the class label for CC(C)OC(=O)c1cc(NC(=S)OC(C)C)ccc1Cl
Ans. high band

Qu. // return the class label for Cc1cc2cn3c4ccc(O)cc4[nH]c(=O)c3c2cc1C
Ans. low band

Qu. // return the class label for O=C(C[C@@]1(O)C(=O)Nc2c(Cl)ccc(Cl)c21)c1ccc(C2CC2)cc1
Ans. middle band

Qu. // return the class label for COc1cc(/C=C2\C(=O)N(CCCCn3c4ccccc4c(=O)c4ccccc43)c3ccccc32)cc(OC)c1O
Ans. high band

Qu. // return the class label for COc1cc(OC)c(C(=O)C(CN(C)C)CN(C)C)cc1OC
Ans. low band

Qu. // return the class label for Fc1cccc(CNc2c3ccccc3nc3ccccc23)c1
Ans. middle band

Qu. // return the class label for CC(C)Nc1ccc(Nc2ccccc2)cc1
Ans. high band
